Data credit: PubChem BioAssay

# METHOD_SUMMARY: drug combination growth inhibition, ovarian cancer – cell-based, oncology-focused library, rucaparib conditional, profiling panel (AID 1508598)
# COND: patient-derived ovarian cancer cells, CellTiter-Glo viability, 144 h; at 0.0195 µM; OCI-P5x cells; with rucaparib 20 µM; hits give low values; 100% = cells with rucaparib alone
Criterion: viability strictly under 90%. Met: Satisfied. Not met: Not satisfied.

Use the examples below as a reference point.
{"columns": ["COMPOUND", "GROUP"],
 "data": [
  ["CCc1cc(Nc2nccc(-c3c(-c4ccc(OC)c(C(=O)Nc5c(F)cccc5F)c4)nc4ccccn34)n2)c(OC)cc1N1CCC(N2CCN(S(C)(=O)=O)CC2)CC1", "Not satisfied"],
  ["COc1ccc(S(=O)(=O)Nc2cccnc2Nc2ccc(O)cc2)cc1", "Not satisfied"],
  ["CN(C)Cc1ccc(-c2nc3cccc4c3n2CCNC4=O)cc1", "Not satisfied"],
  ["C=CC(=O)Nc1cccc(Nc2nc(Nc3ccc(NC4CN(CCF)C4)cc3OC)ncc2C(F)(F)F)c1", "Not satisfied"],
  ["Cn1cc(-c2ccc3nnc(Sc4ccc5ncccc5c4)n3n2)cn1", "Not satisfied"],
  ["CCC(CC)CC1(C(=O)Nc2ccccc2SC(=O)C(C)C)CCCCC1", "Not satisfied"],
  ["Cn1cnc2c(F)c(Nc3ccc(Br)cc3Cl)c(C(=O)NOCCO)cc21", "Satisfied"],
  ["O=C(Cc1ccc(-c2ccc(OCCN3CCOCC3)cc2)cn1)NCc1ccccc1", "Satisfied"]
]}

Problem: Hello, I'm reviewing records and need to know if viability of Cc1csc(-c2nnc(Nc3ccc(Oc4ncccc4-c4ccnc(N)n4)cc3)c3ccccc23)c1 is below 90%. Could you check?
Solution: Not satisfied

Problem: Please state whether viability is below 90% for Cc1cccc(-c2[nH]c(C(C)(C)C)nc2-c2ccc3nccnc3c2)n1
Solution: Not satisfied

Problem: Would you kindly verify if viability of CN1CCN(c2nc(C3=C(c4c[nH]c5ccccc45)C(=O)NC3=O)c3ccccc3n2)CC1 is strictly less than 90%?
Solution: Not satisfied

Problem: Hi there! Is viability for CCOc1cc2ncc(C#N)c(Nc3ccc(F)c(Cl)c3)c2cc1NC(=O)/C=C/CN(C)C below 90%, do you know?
Solution: Satisfied

Problem: Please determine if CCC[C@H](Nc1nc(-c2ccc(NC(=O)NCC)c(OC)c2)ncc1C)c1cccnc1 is below 90% in terms of viability.
Solution: Satisfied

###

# METHOD_SUMMARY: MELAS cybrid and Rieske KO viability enhancers – cell-based, MELAS cybrids, Rieske KO mouse fibroblasts, CellTiter-Glo, primary screen (AID 1508586);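 further: z relative to plate mean and SD of compound and empty wells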
# COND: MELAS cybrid survival, low glucose, CellTiter-Glo 48 h; hits give high values
Activity calls are given as the source filed them.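 The calls were made as follows: active = mean z-score across replicates of 1.96 or higher in either the MELAS or the Rieske mutant cell line; inactive = the rest.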
REPORTED_PROPERTY: z-score

{"columns": ["COMPOUND", "RESULT"],
 "data": [
  ["O=C(O)c1ccc(Nc2ncc3c(n2)-c2ccc(Cl)cc2C(c2c(F)cccc2F)=NC3)cc1", "-0.524 (inactive)"],
  ["CNC(=O)Nc1ccc(-c2nc(N3CC4CCC(C3)O4)c3cnn(C4CCC5(CC4)OCCO5)c3n2)cc1", "3.93 (active)"],
  ["Cc1cc(C(=O)NOCCO)c(Nc2ccc(I)cc2F)n(C)c1=O", "-0.704 (inactive)"]
]}

Problem: What z-score value was documented for this compound, COc1cc2c(cc1OC)[C@@H]1Cc3ccc(OC)c(OC)c3CN1CC2 ?
Solution: -0.395 (inactive)

Problem: If you can, please state the reported z-score value of CCOC(=O)C1=C[C@@H](OC(CC)CC)[C@H](NC(C)=O)[C@@H](N)C1 .
Solution: 0.348 (inactive)

Problem: Find the recorded z-score belonging to COc1ccc(-c2cnc3c(-c4cccc5ncccc45)cnn3c2)cc1 and report it.
Solution: -0.0268 (inactive)

Problem: Report z-score for c1ccc(CNc2nc(NCc3ccccc3)c3ccccc3n2)cc1 please.
Solution: -0.415 (inactive)

Problem: Could you share which z-score value was measured for COc1cc2ncnc(Nc3ccc(Cl)cc3F)c2cc1OC ?
Solution: -0.209 (inactive)

Problem: Look at this compound and give its reported z-score. Cn1cc(-c2cnn3c(N)c(Br)c(C4CCCNC4)nc23)cn1 (stereo unspecified)
Solution: 0.0709 (inactive)

Problem: Could you share which z-score value was measured for Cc1cccc(CC(=O)N2CCc3c2ccc(-c2cn(C)c4ncnc(N)c24)c3F)n1 ?
Solution: -0.412 (inactive)

Problem: Name the recorded z-score for Cc1ccc(-c2csc(NC(=O)c3ccccc3)n2)c(C)c1 .
Solution: -0.247 (inactive)

Problem: Requested field: z-score. Item: COCCn1c2c([n+](Cc3cnccn3)c1C)C(=O)c1ccccc1C2=O
Solution: -0.74 (inactive)

Problem: Data request, read-out z-score, for CC(C)(OCc1nn(Cc2ccccc2)c2ccccc12)C(=O)O
Solution: -0.401 (inactive)

Problem: Consider the compound O=C1C(=O)N(Cc2ccc(Cl)c(Cl)c2)c2ccccc21 and give its measured z-score.
Solution: -0.161 (inactive)

Problem: Reported z-score for CCCc1cc(C)[nH]c(=O)c1CNC(=O)c1cc(-c2ccc(N3CCN(C(C)C)CC3)nc2)cc2c1cnn2C(C)C : what is it?
Solution: 0.696 (inactive)

Problem: Item under review: Cn1c(N2CCCCS2(=O)=O)nc(C(=O)NCc2ccc(F)cc2)c(O)c1=O . Reported z-score?
Solution: -0.418 (inactive)

Problem: Look up z-score: O=C(Cc1ccc(-c2ccc(OCCN3CCOCC3)cc2)cn1)NCc1ccccc1
Solution: 1.14 (inactive)

Problem: # lookup: z-score of CNCc1ccc(-c2cc(-c3nc(-c4ccc(S(=O)(=O)C(C)C)cc4)cnc3N)on2)cc1
Solution: 2.18 (active)

Problem: Fill blank: measured z-score of the compound Cc1cc(C(C)Nc2ccccc2)c2nc(N3CCOCC3)cc(=O)n2c1 (stereo unspecified) is ____.
Solution: -0.0991 (inactive)

Problem: Which z-score is listed for Cc1ccc2nc(NC(=O)CSc3nc4c(c(=O)n3-c3ccccc3)SCC4)sc2c1 ?
Solution: -0.206 (inactive)

Problem: State the recorded z-score for this entry: CNCCC(Oc1ccccc1C)c1ccccc1 (stereo unspecified)
Solution: -0.0629 (inactive)
